- Target Desc: Kelch-like ECH-associated protein 1 (Homo sapiens) (UniProt Q14145)
- Sequence (Q14145 whole entry, looked up): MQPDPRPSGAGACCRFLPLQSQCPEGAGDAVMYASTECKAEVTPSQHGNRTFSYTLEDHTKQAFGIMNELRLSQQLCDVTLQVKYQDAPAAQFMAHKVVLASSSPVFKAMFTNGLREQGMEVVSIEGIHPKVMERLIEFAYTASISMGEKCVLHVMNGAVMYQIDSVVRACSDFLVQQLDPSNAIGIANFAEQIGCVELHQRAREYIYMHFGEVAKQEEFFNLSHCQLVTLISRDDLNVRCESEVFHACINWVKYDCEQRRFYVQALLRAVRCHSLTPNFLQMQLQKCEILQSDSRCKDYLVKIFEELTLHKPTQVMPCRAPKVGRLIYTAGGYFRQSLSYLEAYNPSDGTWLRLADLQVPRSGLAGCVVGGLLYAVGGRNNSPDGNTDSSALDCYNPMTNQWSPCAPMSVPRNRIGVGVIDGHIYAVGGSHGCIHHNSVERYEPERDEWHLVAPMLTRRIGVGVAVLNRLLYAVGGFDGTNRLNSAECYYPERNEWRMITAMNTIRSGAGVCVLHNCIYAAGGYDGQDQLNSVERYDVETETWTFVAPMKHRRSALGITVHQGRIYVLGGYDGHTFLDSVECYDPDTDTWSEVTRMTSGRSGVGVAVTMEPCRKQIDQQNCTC
- Assay Notes: Tm shift of Keap1 Kelch upon compound binding – biophysical, thermal shift, RT-PCR instrument, cherry-pick, dose response (AID 651823)
- Reported Conditions: active compounds read high; at 50 µM unless noted
The other results are listed elsewhere or left out. The source made the active and inactive calls. Cut-off read from the data, not from the text of the source: active = max delta Tm above about 0.48 degrees C; inactive = the rest.
The following compounds are listed with their measured max delta Tm values.

Here is how some compounds turned out for max delta Tm.
INSERT INTO results (compound, experimental_readout, val) VALUES
  ('O=C(CCc1ccccc1)NNc1ccc(F)cc1', 'max delta Tm', '-0.17 °C [at 0.8 µM] (inactive)'),
  ('CC1(C)CC(=O)C(N=Nc2c(F)cccc2F)=C(O)C1', 'max delta Tm', '-0.12 °C [at 6 µM] (inactive)'),
  ('CN1C(=O)c2cccc3c(N)ccc(c23)C1=O', 'max delta Tm', '0 °C [at 26 µM] (inactive)'),
  ('COc1ccc(C2c3ccc(O)cc3Oc3ncn(CCCO)c(=N)c32)cc1OC (stereo not given)', 'max delta Tm', '-0.15 °C [at 6 µM] (inactive)');

Next compound, max delta Tm to be filled in.
// max delta Tm lookup, key: COC(=O)C[n+]1cccc2ccccc21 -0.13 °C (inactive)

The reported numbers originate from PubChem BioAssay AID651823.
